Molecular target: T1, recombinant human DLL4 (C-terminally His-tagged extracellular domain, R&D Systems) (human, UniProt Q9NR61 25-522, biotinylated in the competition ELISA)
T1 construct: also called rhDLL4; hDLL4
T1 sequence (Q9NR61 25-522): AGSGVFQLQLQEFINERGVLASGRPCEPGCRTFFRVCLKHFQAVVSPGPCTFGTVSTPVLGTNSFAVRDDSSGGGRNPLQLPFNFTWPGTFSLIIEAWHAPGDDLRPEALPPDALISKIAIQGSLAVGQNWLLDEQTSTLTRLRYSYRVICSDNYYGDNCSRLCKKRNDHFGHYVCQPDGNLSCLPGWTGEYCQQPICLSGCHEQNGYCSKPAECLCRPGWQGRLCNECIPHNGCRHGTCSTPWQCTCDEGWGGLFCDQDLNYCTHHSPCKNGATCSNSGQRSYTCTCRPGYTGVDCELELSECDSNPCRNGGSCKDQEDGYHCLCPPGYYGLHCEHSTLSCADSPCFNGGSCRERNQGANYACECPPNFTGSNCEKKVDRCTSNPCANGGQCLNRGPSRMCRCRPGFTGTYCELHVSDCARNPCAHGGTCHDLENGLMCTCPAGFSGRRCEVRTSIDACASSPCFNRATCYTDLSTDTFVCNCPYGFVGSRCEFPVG
Assay: ProteOn off-rate screen, periplasmic extract, coated human DLL4
Recorded measurements of koff, one per entry
Give your result in s⁻¹ as a bare value.

Reference set (3 entries):
Binder: DLLBII130B02 (VHH) VHH: EVQLVESGGGLVQAGGSLRLSCAASGRTFSSYAMAWFRQAPGKEREYVAAIRWSGGTAYYADSVQGRFTISRDNAKNTVYLQMYSLKPEDTAVYYCANRAPDTRLAPYLYDHWGQGTQVTVSS
Attribute measured: koff
Number: 7.8e-05
//
Binder: DLLBII129H02 (VHH) VHH: EVQLVESGGGLVQAGGSLRLSCAASGRTFSSYAMAWYRQAPGKEREYVAAIRWSGGTAYYADSVQGRFTISRDNAKNTVYLQMNSLKPEDTAVYYCANRAPDTRLRPYEYDYWGQGTQVTVSS
Attribute measured: koff
Number: 9.9e-05
//
Binder: DLLBII129B05 (VHH, not shown: small tags and cut ends) VHH: EVQLVESGGGLVQAGGSLRLSCAASGRTFSSYAMAWYRQAPGKEREYVAAIRWSGGTAYYADSVQGRFTISRDNAKNTVYLQMNSLKPEDTAVYYCANRAPDTRLAPYEYDHWGQGTQVTVSS
Attribute measured: koff
Number: 9.3e-05

Ask | Recorded koff for DLLBII129D08 (VHH, not shown: small tags and cut ends) VHH: EVQLVESGGGLVQAGGSLRLSCAASGRTFSSYAMAWYRQAPGKEREYVAAIRWSGGTAYYADSVQGRFTISRDNAKNTVYLQMNSLKPEDTAVYYCANRAPDTRLEPYLYDYWGQGTQVTVSS , please?
Reply | 5.9e-05

Ask | Then what about the binder DLLBII130B03 (VHH, not shown: small tags and cut ends) VHH: EVQLVESGGGLVQAGGSLRLSCAASGRTFSSYAMAWYRQAPGKEREYVAAIRWSGGTAYYADSVQGRFTISRDNAKNTVYLQMNSLKPEDTAVYYCANRAPDTRLAPYLYDYWGQGTQVTVSS ?
Reply | 6.7e-05

Ask | Then what about the binder DLLBII130A05 (VHH) VHH: EVQLVESGGGLVQAGGSLRLSCAASGRTFSSYAMAWYRQAPGKEREYVAAIRWSGGTAYYADSVQGRFTISRDNAKNTVYLQMNSLKPEDTAVYYCANRAPDTRLGPYLYDHWGQGTQVTVSS ?
Reply | 7.5e-05

Ask | Then what about the binder DLLBII129A03 (VHH, not shown: small tags and cut ends) VHH: EVQLVESGGGLVQAGGSLRLSCAASGRTFSSYAMAWFRQAPGKEREYVAAIRWSGGTAYYADSVQGRFTISRDNAKNTVYLQMNSLRPEDTAVYYCANRAPDTRLRPYLYDYWGQGTQVTVSS ?
Reply | 0.00012

Ask | Then what about the binder DLLBII101G08 (VHH, not shown: small tags and cut ends, parent VHH; also called 101G08 (wt); 101G8) VHH: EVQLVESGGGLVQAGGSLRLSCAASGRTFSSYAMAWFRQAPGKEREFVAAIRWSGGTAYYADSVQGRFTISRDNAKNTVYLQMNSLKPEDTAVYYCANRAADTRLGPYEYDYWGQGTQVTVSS ?
Reply | 0.0022
